For each of the molecules below, state its pKd.
- experimental.target: mutant MGL (Homo sapiens, UniProt Q99685, L169S/L176S)
- Sequence (Q99685 1-303 L169S/L176S): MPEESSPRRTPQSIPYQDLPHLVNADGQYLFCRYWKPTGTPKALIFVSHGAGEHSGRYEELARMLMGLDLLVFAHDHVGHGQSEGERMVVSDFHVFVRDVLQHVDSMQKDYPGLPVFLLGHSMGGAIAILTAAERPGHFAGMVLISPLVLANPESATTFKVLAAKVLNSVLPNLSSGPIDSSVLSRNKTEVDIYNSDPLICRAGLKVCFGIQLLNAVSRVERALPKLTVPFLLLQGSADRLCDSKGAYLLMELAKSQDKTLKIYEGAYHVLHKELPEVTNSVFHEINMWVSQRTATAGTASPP
- assay.name: MGL ThermoFluor assay - mutant
- Type: binding
- protocol.conditions: ThermoFluor, compound concentration measured by qNMR, read-out: MGL mutant ThermoFluor qKd (using qNMR conc.)
// field semantics: pKd = negative decimal log of concentration (mol/L)

Per the record, O=C(c1ccc2c(ccn2-c2ccncc2)c1)N1CC(N2CCN(C(=O)c3nccs3)CC2)C1 has pKd of 7.01

Per the record, Cc1nc2cc(Cl)cc(Cl)c2cc1C(=O)N1CC(N2CCN(C(=O)c3nccs3)CC2)C1 has pKd of 5.90

Per the record, O=C1c2ccccc2-c2ccc(C(=O)N3CC(N4CCN(C(=O)c5nccs5)CC4)C3)cc21 has pKd of 7.07

Per the record, CCCCCCCC/C=C\CCCCCCCC(=O)N1CC(N2CCN(C(=O)c3nccs3)CC2)C1 has pKd of 6.87

Per the record, Cc1ccc(-n2ccc3cc(C(=O)N4CC(N5CCN(C(=O)c6nccs6)CC5)C4)ccc32)nc1 has pKd of 7.06

Per the record, Cc1cc(C(=O)N2CC(N3CCN(C(=O)c4nccs4)CC3)C2)c(C)n1Cc1ccc(S(N)(=O)=O)cc1 has pKd of 5.30

Per the record, O=C(c1ccccc1)N1CCN(C2CN(C(=O)c3ccc4c(ccn4-c4ccc(C(F)(F)F)cn4)c3)C2)CC1 has pKd of 7.07

Per the record, C[C@@H]1CN(C2CN(C(=O)c3cc4ccc(C(F)(F)F)cc4s3)C2)C[C@H](C)N1C(=O)c1nccs1 has pKd of 5.46

Per the record, CC1(C)Cc2cc(C(=O)N3CC(N4CCN(C(=O)c5nccs5)CC4)C3)ccc2O1 has pKd of 6.42

Per the record, O=C(c1ccccc1)N1CCN(C2CN(C(=O)c3ccc4c(ccn4-c4ccc(F)cn4)c3)C2)CC1 has pKd of 6.20

Per the record, O=C(c1ccc[nH]1)N1CCN(C2CN(C(=O)c3[nH]c4nc(C(F)(F)F)ccc4c3Br)C2)CC1 has pKd of 6.58

Per the record, O=C(c1cscn1)N1CC(N2CCN(C(=O)c3cc4nc(C(F)(F)F)ccc4[nH]3)CC2)C1 has pKd of 5.71

Per the record, Cc1nn(-c2cccc(C(F)(F)F)c2)c2sc(C(=O)N3CC(N4CCN(C(=O)c5nccs5)CC4)C3)cc12 has pKd of 7.10

Per the record, Cc1nn(-c2ccc(F)cc2)c2ncc(C(=O)N3CC(N4CCN(C(=O)c5nccs5)CC4)C3)cc12 has pKd of 7.82
